- tested.target: C-type lectin domain family 4 member E (Mus musculus)
- assay.name: Agonist activity at mouse mincle coupled with FcRgamma expressed in 2B4-NFAT-GFP reporter cells up to 1 nmol after 18 hrs by flow cytometric analysis
- Type: cell-based
Activity calls are given as the source filed them. No cut-off for these calls is given here.
Log the outcome using a class from Y = active, N = inactive

Query: recorded result category for CCCCCCCOc1ccc(C(=O)OC[C@H]2O[C@H](O[C@H]3O[C@H](COC(=O)c4ccc(OCCCCCCC)cc4O)[C@@H](O)[C@H](O)[C@H]3O)[C@H](O)[C@@H](O)[C@@H]2O)c(O)c1 in this test
Y

Entry to check: Cc1cc(O)cc(O)c1C(=O)OC[C@H]1O[C@H](O[C@H]2O[C@H](COC(=O)c3c(C)cc(O)cc3O)[C@@H](O)[C@H](O)[C@H]2O)[C@H](O)[C@@H](O)[C@@H]1O [BRARTEMICIN]
N

Entry to check: O=C(OC[C@H]1O[C@H](O[C@H]2O[C@H](COC(=O)c3ccc(O)cc3O)[C@@H](O)[C@H](O)[C@H]2O)[C@H](O)[C@@H](O)[C@@H]1O)c1ccc(O)cc1O
N

Entry to check: CCCCCCCOc1ccc(C(=O)OC[C@H]2O[C@H](O[C@H]3O[C@H](COC(=O)c4ccc(OCCCCCCC)cc4)[C@@H](O)[C@H](O)[C@H]3O)[C@H](O)[C@@H](O)[C@@H]2O)cc1
Y

----------
- tested.target: C-type lectin domain family 4 member E (Mus musculus) (UniProt Q9R0Q8)
- Sequence (Q9R0Q8 whole entry, the tested form may be a part): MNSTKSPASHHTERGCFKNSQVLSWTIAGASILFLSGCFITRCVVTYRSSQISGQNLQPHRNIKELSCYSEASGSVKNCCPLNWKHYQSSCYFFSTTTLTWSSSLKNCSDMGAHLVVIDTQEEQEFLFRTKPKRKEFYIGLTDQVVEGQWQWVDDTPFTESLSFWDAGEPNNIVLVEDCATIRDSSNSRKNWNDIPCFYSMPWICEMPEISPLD
- assay.name: Agonist activity at mincle in wild type C57BL/6 mouse GM-CSF derived BMDM assessed as increase in MIP2 release at 0.1 to 1 nmol after 24 hrs by sandwich ELISA
The source made the active and inactive calls. The calls are words filed in the database; no cut-off is given here.
Log the outcome using a class from active, inactive

Query: recorded result category for CCCCCCCCCCCCCCCCCCOc1cc(C)c(C(=O)OC[C@H]2O[C@H](O[C@H]3O[C@H](COC(=O)c4c(C)cc(OCCCCCCCCCCCCCCCCCC)cc4O)[C@@H](O)[C@H](O)[C@H]3O)[C@H](O)[C@@H](O)[C@@H]2O)c(O)c1 in this test
active

Entry to check: CCCCCCCOc1ccc(C(=O)OC[C@H]2O[C@H](O[C@H]3O[C@H](COC(=O)c4ccc(OCCCCCCC)cc4O)[C@@H](O)[C@H](O)[C@H]3O)[C@H](O)[C@@H](O)[C@@H]2O)c(O)c1
active

Entry to check: CCCCCCCOc1ccc(C(=O)OC[C@H]2O[C@H](O[C@H]3O[C@H](COC(=O)c4ccc(OCCCCCCC)cc4)[C@@H](O)[C@H](O)[C@H]3O)[C@H](O)[C@@H](O)[C@@H]2O)cc1
active

Entry to check: Cc1cc(O)cc(O)c1C(=O)OC[C@H]1O[C@H](O[C@H]2O[C@H](COC(=O)c3c(C)cc(O)cc3O)[C@@H](O)[C@H](O)[C@H]2O)[C@H](O)[C@@H](O)[C@@H]1O
inactive

Entry to check: CCCCCCCCCCCCCCCCCCOc1ccc(C(=O)OC[C@H]2O[C@H](O[C@H]3O[C@H](COC(=O)c4ccc(OCCCCCCCCCCCCCCCCCC)cc4)[C@@H](O)[C@H](O)[C@H]3O)[C@H](O)[C@@H](O)[C@@H]2O)cc1
active

Entry to check: COc1ccc(C(=O)OC[C@H]2O[C@H](O[C@H]3O[C@H](COC(=O)c4ccc(OC)cc4O)[C@@H](O)[C@H](O)[C@H]3O)[C@H](O)[C@@H](O)[C@@H]2O)c(O)c1
inactive

Entry to check: CCCCOc1ccc(C(=O)OC[C@H]2O[C@H](O[C@H]3O[C@H](COC(=O)c4ccc(OCCCC)cc4O)[C@@H](O)[C@H](O)[C@H]3O)[C@H](O)[C@@H](O)[C@@H]2O)c(O)c1
active

Entry to check: CCCCCCCCCCCCCCCCCCCCCC(=O)OC[C@H]1O[C@H](O[C@H]2O[C@H](COC(=O)CCCCCCCCCCCCCCCCCCCCC)[C@@H](O)[C@H](O)[C@H]2O)[C@H](O)[C@@H](O)[C@@H]1O
active

Entry to check: O=C(OC[C@H]1O[C@H](O[C@H]2O[C@H](COC(=O)c3ccc(O)cc3O)[C@@H](O)[C@H](O)[C@H]2O)[C@H](O)[C@@H](O)[C@@H]1O)c1ccc(O)cc1O
inactive

Entry to check: CCCCCCCCCCCCCCCCCCOc1ccc(C(=O)OC[C@H]2O[C@H](O[C@H]3O[C@H](COC(=O)c4ccc(OCCCCCCCCCCCCCCCCCC)cc4O)[C@@H](O)[C@H](O)[C@H]3O)[C@H](O)[C@@H](O)[C@@H]2O)c(O)c1
active

Entry to check: CCCCCCCCCCCCCCCCCCCCCCCCCC(O)C(CCCCCCCCCCC1CC1CCCCCCCCCCCCCCCCCC)C(=O)OC[C@H]1O[C@H](O[C@H]2O[C@H](COC(=O)C(CCCCCCCCCCCCCCCCCCCCCCCC)C(O)CCCCCCCCCCCC3CC3CCCCCCCCCCCCCCCCCC)[C@@H](O)[C@H](O)[C@H]2O)[C@H](O)[C@@H](O)[C@@H]1O (stereo partly specified)
active

----------
- tested.target: C-type lectin domain family 4 member E (Mus musculus) (UniProt Q9R0Q8)
- assay.name: Binding affinity to recombinant mouse mincle extracellular domain fused with human IgG Fc expressed in HEK293T cells at 0.1 nmol by ELISA
- Type: cell-based
- recorded.conditions: HEK-293T
Calls of active or inactive are those of the source. No cut-off for these calls is given here.
readout: Activity

Past entries and their recorded results:
smi	Activity
COc1ccc(C(=O)OC[C@H]2O[C@H](O[C@H]3O[C@H](COC(=O)c4ccc(OC)cc4O)[C@@H](O)[C@H](O)[C@H]3O)[C@H](O)[C@@H](O)[C@@H]2O)c(O)c1	inactive
CCCCCCCCCCCCCCCCCCOc1ccc(C(=O)OC[C@H]2O[C@H](O[C@H]3O[C@H](COC(=O)c4ccc(OCCCCCCCCCCCCCCCCCC)cc4O)[C@@H](O)[C@H](O)[C@H]3O)[C@H](O)[C@@H](O)[C@@H]2O)c(O)c1	Active
CCCCCCCCCCCCCCCCCCOc1cc(C)c(C(=O)OC[C@H]2O[C@H](O[C@H]3O[C@H](COC(=O)c4c(C)cc(OCCCCCCCCCCCCCCCCCC)cc4O)[C@@H](O)[C@H](O)[C@H]3O)[C@H](O)[C@@H](O)[C@@H]2O)c(O)c1	Active
CCCCOc1ccc(C(=O)OC[C@H]2O[C@H](O[C@H]3O[C@H](COC(=O)c4ccc(OCCCC)cc4O)[C@@H](O)[C@H](O)[C@H]3O)[C@H](O)[C@@H](O)[C@@H]2O)c(O)c1	inactive
CCCCCCCCCCCCCCCCCCOc1ccc(C(=O)OC[C@H]2O[C@H](O[C@H]3O[C@H](COC(=O)c4ccc(OCCCCCCCCCCCCCCCCCC)cc4)[C@@H](O)[C@H](O)[C@H]3O)[C@H](O)[C@@H](O)[C@@H]2O)cc1	Active

Requested field: Activity. Item: CCCCCCCOc1ccc(C(=O)OC[C@H]2O[C@H](O[C@H]3O[C@H](COC(=O)c4ccc(OCCCCCCC)cc4O)[C@@H](O)[C@H](O)[C@H]3O)[C@H](O)[C@@H](O)[C@@H]2O)c(O)c1
Active

Entry to check: CCCCCCCOc1ccc(C(=O)OC[C@H]2O[C@H](O[C@H]3O[C@H](COC(=O)c4ccc(OCCCCCCC)cc4)[C@@H](O)[C@H](O)[C@H]3O)[C@H](O)[C@@H](O)[C@@H]2O)cc1
Active

Entry to check: O=C(OC[C@H]1O[C@H](O[C@H]2O[C@H](COC(=O)c3ccc(O)cc3O)[C@@H](O)[C@H](O)[C@H]2O)[C@H](O)[C@@H](O)[C@@H]1O)c1ccc(O)cc1O
inactive

Entry to check: Cc1cc(O)cc(O)c1C(=O)OC[C@H]1O[C@H](O[C@H]2O[C@H](COC(=O)c3c(C)cc(O)cc3O)[C@@H](O)[C@H](O)[C@H]2O)[C@H](O)[C@@H](O)[C@@H]1O
inactive

----------
- tested.target: C-type lectin domain family 4 member E (Homo sapiens) (UniProt Q9ULY5)
- Sequence (whole entry): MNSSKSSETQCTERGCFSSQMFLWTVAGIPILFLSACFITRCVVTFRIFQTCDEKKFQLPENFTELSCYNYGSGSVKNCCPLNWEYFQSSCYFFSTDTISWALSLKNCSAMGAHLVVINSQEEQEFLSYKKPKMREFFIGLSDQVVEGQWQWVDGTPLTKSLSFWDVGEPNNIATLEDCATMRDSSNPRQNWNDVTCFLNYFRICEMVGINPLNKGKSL
- assay.name: Binding affinity to recombinant human mincle extracellular domain fused with human IgG Fc expressed in HEK293T cells at 0.1 nmol by ELISA
- Format: cell-based
- recorded.conditions: HEK-293T
Activity calls are given as the source filed them. No cut-off for these calls is given here.
readout: Activity

Past entries and their recorded results:
smi	Activity
CCCCCCCCCCCCCCCCCCOc1ccc(C(=O)OC[C@H]2O[C@H](O[C@H]3O[C@H](COC(=O)c4ccc(OCCCCCCCCCCCCCCCCCC)cc4)[C@@H](O)[C@H](O)[C@H]3O)[C@H](O)[C@@H](O)[C@@H]2O)cc1	Active
CCCCCCCOc1ccc(C(=O)OC[C@H]2O[C@H](O[C@H]3O[C@H](COC(=O)c4ccc(OCCCCCCC)cc4O)[C@@H](O)[C@H](O)[C@H]3O)[C@H](O)[C@@H](O)[C@@H]2O)c(O)c1	Active
CCCCCCCCCCCCCCCCCCOc1ccc(C(=O)OC[C@H]2O[C@H](O[C@H]3O[C@H](COC(=O)c4ccc(OCCCCCCCCCCCCCCCCCC)cc4O)[C@@H](O)[C@H](O)[C@H]3O)[C@H](O)[C@@H](O)[C@@H]2O)c(O)c1	Active
CCCCCCCOc1ccc(C(=O)OC[C@H]2O[C@H](O[C@H]3O[C@H](COC(=O)c4ccc(OCCCCCCC)cc4)[C@@H](O)[C@H](O)[C@H]3O)[C@H](O)[C@@H](O)[C@@H]2O)cc1	Active
COc1ccc(C(=O)OC[C@H]2O[C@H](O[C@H]3O[C@H](COC(=O)c4ccc(OC)cc4O)[C@@H](O)[C@H](O)[C@H]3O)[C@H](O)[C@@H](O)[C@@H]2O)c(O)c1	inactive

Requested field: Activity. Item: O=C(OC[C@H]1O[C@H](O[C@H]2O[C@H](COC(=O)c3ccc(O)cc3O)[C@@H](O)[C@H](O)[C@H]2O)[C@H](O)[C@@H](O)[C@@H]1O)c1ccc(O)cc1O
inactive

Entry to check: CCCCCCCCCCCCCCCCCCOc1cc(C)c(C(=O)OC[C@H]2O[C@H](O[C@H]3O[C@H](COC(=O)c4c(C)cc(OCCCCCCCCCCCCCCCCCC)cc4O)[C@@H](O)[C@H](O)[C@H]3O)[C@H](O)[C@@H](O)[C@@H]2O)c(O)c1
Active

Entry to check: CCCCOc1ccc(C(=O)OC[C@H]2O[C@H](O[C@H]3O[C@H](COC(=O)c4ccc(OCCCC)cc4O)[C@@H](O)[C@H](O)[C@H]3O)[C@H](O)[C@@H](O)[C@@H]2O)c(O)c1
inactive

Entry to check: Cc1cc(O)cc(O)c1C(=O)OC[C@H]1O[C@H](O[C@H]2O[C@H](COC(=O)c3c(C)cc(O)cc3O)[C@@H](O)[C@H](O)[C@H]2O)[C@H](O)[C@@H](O)[C@@H]1O
inactive
